Test system: MRSA43300
Assay: microbe, parasite or virus in culture
Format: cell-based, Methicillin-resistant Staphylococcus aureus
Settings: 20 h
Where a SMILES comes first, the peptide text is derived from it. [ ]: non-standard residue; d: D form.
TEST_READOUT: MIC

Known results for compounds:
{"COMPOUND": "CC[C@H](C)[C@@H]1NC(=O)[C@@H]2CCCN2C(=O)[C@H](CCCNC(=N)N)NC(=O)[C@H]([C@@H](C)CC)NC(=O)[C@@H]2CCCN2C(=O)[C@H](CCCNC(=N)N)NC1=O [OIR1] (cyclo(IRPIRP))", "TEST_READOUT": "MIC", "RESULT": ">128 µM"}
{"COMPOUND": "CC[C@H](C)[C@H](N)C(=O)N[C@@H](CCCNC(=N)N)C(=O)N[C@H](C(=O)N[C@@H](CCCNC(=N)N)C(=O)N[C@H](C(=O)N[C@@H](CCCNC(=N)N)C(=O)N1CCC[C@@H]1C(=O)N[C@H](C(=O)N[C@@H](CCCNC(=N)N)C(=O)N[C@H](C(=O)N[C@@H](CCCNC(=N)N)C(=O)N[C@H](C(=O)N[C@@H](CCCNC(=N)N)C(=O)N1CCC[C@@H]1C(=O)O)[C@@H](C)CC)[C@@H](C)CC)[C@@H](C)CC)[C@@H](C)CC)[C@@H](C)CC [DIR3] (H-IRIRIR[dP]IRIRIR[dP]-OH)", "TEST_READOUT": "MIC", "RESULT": "64 µM"}
{"COMPOUND": "CC[C@H](C)[C@@H]1NC(=O)[C@H](CCCNC(=N)N)NC(=O)[C@H]([C@@H](C)CC)NC(=O)[C@@H]2CCCN2C(=O)[C@H](CCCNC(=N)N)NC(=O)[C@H]([C@@H](C)CC)NC(=O)[C@H](CCCNC(=N)N)NC(=O)[C@H]([C@@H](C)CC)NC(=O)[C@@H]2CCCN2C(=O)[C@H](CCCNC(=N)N)NC1=O [OIR2] (cyclo(IRIRPIRIRP))", "TEST_READOUT": "MIC", "RESULT": ">128 µM"}

GET /value?item= CC[C@H](C)[C@H](N)C(=O)N[C@@H](CCCNC(=N)N)C(=O)N1CCC[C@@H]1C(=O)N[C@H](C(=O)N[C@@H](CCCNC(=N)N)C(=O)N1CCC[C@@H]1C(=O)O)[C@@H](C)CC [DIR1] (H-IR[dP]IR[dP]-OH) &field=MIC returns >128 µM

====

System: gram-negative strains tested
Experiment: Geometric mean of MICs, gram-negative strains
Assay type: cell-based
Conditions: 5 gram-negative strains; >128 apparently counted as 256; read-out: nGM (–), geometric mean of the MICs against gram-negative strains
Where a SMILES comes first, the peptide text is derived from it. [ ]: non-standard residue; d: D form.
Reported MIC values for the following compounds.
Dear colleague, please return just the value in µM, with no unit written.

{"COMPOUND": "CC1(C)S[C@@H]2[C@H](NC(=O)Cc3ccccc3)C(=O)N2[C@H]1C(=O)O [PS, Penicillin Sodium, reference compound]", "TEST_READOUT": "MIC", "QUANTITATIVE_READOUT": 24.3}
{"COMPOUND": "CC[C@H](C)[C@H](N)C(=O)N[C@@H](CCCNC(=N)N)C(=O)N[C@H](C(=O)N[C@@H](CCCNC(=N)N)C(=O)N1CCC[C@@H]1C(=O)N[C@H](C(=O)N[C@@H](CCCNC(=N)N)C(=O)N[C@H](C(=O)N[C@@H](CCCNC(=N)N)C(=O)N1CCC[C@@H]1C(=O)O)[C@@H](C)CC)[C@@H](C)CC)[C@@H](C)CC [DIR2] (H-IRIR[dP]IRIR[dP]-OH)", "TEST_READOUT": "MIC", "QUANTITATIVE_READOUT": 194.0}
{"COMPOUND": "CC[C@H](C)[C@@H]1NC(=O)[C@@H]2CCCN2C(=O)[C@H](CCCNC(=N)N)NC(=O)[C@H]([C@@H](C)CC)NC(=O)[C@@H]2CCCN2C(=O)[C@H](CCCNC(=N)N)NC1=O [OIR1] (cyclo(IRPIRP))", "TEST_READOUT": "MIC", "QUANTITATIVE_READOUT": 256}

Result for CC[C@H](C)[C@@H]1NC(=O)[C@H](CCCNC(=N)N)NC(=O)[C@H]([C@@H](C)CC)NC(=O)[C@@H]2CCCN2C(=O)[C@H](CCCNC(=N)N)NC(=O)[C@H]([C@@H](C)CC)NC(=O)[C@H](CCCNC(=N)N)NC(=O)[C@H]([C@@H](C)CC)NC(=O)[C@@H]2CCCN2C(=O)[C@H](CCCNC(=N)N)NC1=O [OIR2] (cyclo(IRIRPIRIRP)) , tested on gram-negative strains tested, MIC: 147.0
